test system: U2OS; test: Multiplex assay against U2OS; assay type: toxicity, cell-based; conditions: human, 24 h, 10 µM, compound concentration 10 uM, replicate 2
Population Fragmented Nuclei (%) vs 10%: less than gives class 1; not less than gives class 0.

Look over these answered cases.
Exercise: Report whether reported Population Fragmented Nuclei (%) is lower than 10% (strictly) for CCc1ccc(OCc2ccccc2C(=O)Nc2ccc3nc(C)cc(N)c3c2)cc1.Cl
Solution: class 0

Exercise: Please answer likewise for C=CC(=O)Nc1ccc2[nH]c(=O)n(C3CCN(Cc4ccc(-c5nc6cc[nH]c(=O)c6cc5-c5ccccc5)cc4)CC3)c2c1 [Borussertib]
Solution: class 0

Exercise: Please answer likewise for CC1=C(C(=O)Nc2cc3cn[nH]c3cc2F)C(c2ccc(C(F)(F)F)cc2)CC(=O)N1 (stereo not drawn)
Solution: class 0

Exercise: Please answer likewise for O=C(c1cc2c(cc1F)OC(c1ccc(F)cc1)(c1ccc(Cl)cc1Cl)O2)N1CCOCC1 (stereo not drawn)
Solution: class 1

Exercise: Please answer likewise for CC(C)NC(=O)N1CC[C@H](NC2=Nc3cc(F)ccc3N(CC(F)F)c3ccc(Cl)cc32)C1
Solution: class 0

Others:
Exercise: Report whether reported Population Fragmented Nuclei (%) is lower than 10% (strictly) for COC(=O)C1=C(C)NC(C)=C(C(=O)OCCCN2CCC(c3ccccc3)(c3ccccc3)CC2)[C@H]1c1cccc([N+](=O)[O-])c1 [NIGULDIPINE]
Solution: class 0

Exercise: Please answer likewise for C=CC(=O)Nc1cccc(Sc2nc(Nc3ccc(N4CCN(C)CC4)cc3)ncc2Cl)c1
Solution: class 1

====

test system: Fibroblast; assay: Multiplex assay against human fibroblast; format: toxicity, cell-based; details: 12 h, 1 µM, compound concentration 1 uM, replicate 2
metric: Population Hoechst High Intensity Objects (%)

Answered examples (7):
Exercise: Form field: Population Hoechst High Intensity Objects (%) recorded for CC(C)(C)NC[C@H](O)COc1nsnc1N1CCOCC1 [TIMOLOL] with Fibroblast (enter value)
Solution: 8%

Exercise: Please answer likewise for CCCSc1nc(N[C@@H]2C[C@H]2c2ccc(F)c(F)c2)c2nnn([C@@H]3C[C@H](OCCO)[C@@H](O)[C@H]3O)c2n1 [TICAGRELOR]
Solution: 5%

Exercise: Please answer likewise for Cc1ccc2c(c1)c1c(n2CCc2ccc(C)nc2)CCN(C)C1 [LATREPIRDINE]
Solution: 16%

Exercise: Please answer likewise for COc1cc2ncn(-c3cc(OCc4ccccc4C(F)(F)F)c(C(N)=O)s3)c2cc1OC [GW843682X]
Solution: 10%

Exercise: Please answer likewise for CCc1ccc(OCc2ccccc2C(=O)Nc2ccc3nc(C)cc(N)c3c2)cc1.Cl
Solution: 16%

Exercise: Please answer likewise for O=c1[nH]c2ccccc2n1C1CCN(Cc2ccc(-c3[nH]c4cc5ncnc5cc4nc3-c3ccccc3)cc2)CC1
Solution: 31%

Exercise: Please answer likewise for C=CC(=O)Nc1ccc2[nH]c(=O)n(C3CCN(Cc4ccc(-c5nc6cc[nH]c(=O)c6cc5-c5ccccc5)cc4)CC3)c2c1 [Borussertib]
Solution: 30%

Please find the next compound below.
Exercise: Form field: Population Hoechst High Intensity Objects (%) recorded for C=CC(=O)Nc1cccc(Oc2nc(Nc3ccc(N4CCN(C)CC4)cc3OC)ncc2Cl)c1 with Fibroblast (enter value)
Solution: 23%

====

tested on: Fibroblast; assay: Incucyte cell viability with human fibroblast; assay type: toxicity, cell-based; details: 12 h, 10 µM, compound concentration 10 uM, replicate number 2, timepoint 12 hours; also: filed as whole numbers so only -1 and 0 and 1 occur
Kindly supply the reported Growth Rate values for the records listed here.
Answers are plain numbers.

Exercise: Which Growth Rate is reported for this compound? CNC(=O)Nc1ccc2c(c1)[C@@]1(CC2)OC(=O)N(CC(=O)N(Cc2ccc(F)cc2)[C@@H](C)C(F)(F)F)C1=O [A-486]
Solution: 1

Exercise: Please answer likewise for O=C(Cc1ccccc1)Nc1nc2ccc(Cl)cc2c2nc(-c3ccco3)nn12
Solution: 1

Exercise: Please answer likewise for COC(=O)C(Cc1ccc(OCCn2c(=O)sc3cc(C(=O)c4ccccc4)ccc32)cc1)C(=O)OC
Solution: 0

Exercise: Please answer likewise for CCNC(=O)c1cc2c(N3CCOC[C@@H]3C)ccnc2n1C
Solution: 0

Please find the next compound below.
Exercise: Which Growth Rate is reported for this compound? COCCOc1nc(-c2ccc(Cl)nc2)nc2c1CN(C(=O)c1ncn3ccccc13)CC2 [THPP-1]
Solution: 0
